Test: chemical genetic growth profiling, strain panel (AID 1159580);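 note: tested at 20 µM; growth read once vehicle control cultures reached saturation at 30 °C; lower values mean less growth of the strain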
Details: S. cerevisiae strains, growth OD, strain wild type
Hit rate of the full screen: of about 5,500 compounds, about 2,000 (36%) were called active. Another 18% or so got no clear call; they are omitted. Cut-off read from the data, not from the text of the source: active = normalized growth mostly below about 0.91 (no sharp cut-off); inconclusive = no clear call, values can overlap the other calls; inactive = mostly above about 0.92. The list shows a part of the results.
Answer with one of the outcomes true (active), false (inactive)

Please state the recorded outcome for this molecule: CC[C@@]1(O)C[C@H](O[C@H]2C[C@H](N(C)C)[C@H](O)[C@H](C)O2)c2c(cc3c(c2O)C(=O)c2c(O)cccc2C3=O)[C@H]1C(=O)OC
true

Name the outcome recorded for Cc1cc(=O)n2[nH]cnc2n1 in the assay.
false

Recorded test outcome, item O=S(=O)(O)CCS
false

Assay outcome for NCCCS(=O)(=O)O : what was it?
false

Outcome? CCCCCCCCC(=O)NCc1ccc(O)c(OC)c1
false

For O=C1c2ccccc2C(=O)C1(c1ccccc1)[N+](=O)[O-] , what call appears in the results of this test?
false

Record lookup: outcome of this test for C[n+]1c2cc(N)ccc2cc2ccc(N)cc21 ?
true

For this molecule, state the assay outcome: CC[C@H]1OC(=O)[C@H](C)[C@@H](O[C@H]2C[C@@](C)(OC)[C@@H](O)[C@H](C)O2)[C@H](C)[C@@H](O[C@@H]2O[C@H](C)C[C@H](N(C)C)[C@H]2O)[C@](C)(OC)C[C@@H](C)C(=O)[C@H](C)[C@@H](O)[C@]1(C)O
false

Which outcome was assigned to CN(C)CCN(Cc1cccs1)c1ccccn1 in this test?
false

Hello, I am checking results. What call was entered for C=C[C@@](C)(O)CCC1C(=C)C[C@H](O)C2C(C)(C)CCCC12C (stereo not given in full) ?
false
